Collected IC50 values appear next to each entry.
# Target: PRMT5-MEP50 enzyme complex (Homo sapiens (Human), UniProt O14744)
# Sequence (O14744 2-637): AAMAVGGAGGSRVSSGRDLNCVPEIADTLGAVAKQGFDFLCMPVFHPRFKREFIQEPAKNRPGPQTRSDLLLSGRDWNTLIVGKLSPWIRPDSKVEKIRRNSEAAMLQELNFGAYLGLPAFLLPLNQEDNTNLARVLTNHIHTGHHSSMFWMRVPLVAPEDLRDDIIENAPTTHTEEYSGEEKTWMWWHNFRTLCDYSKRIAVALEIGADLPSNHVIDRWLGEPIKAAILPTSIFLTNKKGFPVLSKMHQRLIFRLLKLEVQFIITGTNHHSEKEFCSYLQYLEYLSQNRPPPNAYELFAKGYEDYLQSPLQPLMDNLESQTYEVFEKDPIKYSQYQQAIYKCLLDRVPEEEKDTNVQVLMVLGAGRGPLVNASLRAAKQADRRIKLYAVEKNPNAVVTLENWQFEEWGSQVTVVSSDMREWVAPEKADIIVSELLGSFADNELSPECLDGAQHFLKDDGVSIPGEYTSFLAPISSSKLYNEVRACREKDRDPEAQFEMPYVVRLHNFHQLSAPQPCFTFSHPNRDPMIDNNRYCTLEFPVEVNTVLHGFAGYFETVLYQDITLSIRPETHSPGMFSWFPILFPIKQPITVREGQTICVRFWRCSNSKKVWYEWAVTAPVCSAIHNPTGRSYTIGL
# Sequence (Q9BQA1 2-342 partner): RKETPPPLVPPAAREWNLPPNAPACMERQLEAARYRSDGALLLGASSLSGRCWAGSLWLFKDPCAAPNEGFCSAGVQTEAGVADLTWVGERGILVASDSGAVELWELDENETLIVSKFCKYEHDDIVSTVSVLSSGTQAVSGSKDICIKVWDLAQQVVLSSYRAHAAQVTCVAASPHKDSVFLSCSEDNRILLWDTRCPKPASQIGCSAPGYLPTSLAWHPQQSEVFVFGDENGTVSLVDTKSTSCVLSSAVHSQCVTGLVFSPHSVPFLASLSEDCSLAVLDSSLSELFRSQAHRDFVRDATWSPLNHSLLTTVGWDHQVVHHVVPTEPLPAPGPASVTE
# Experiment description: PRMT5 enzyme activity in vitro assay (methylation of histone H4R3, ELISA absorbance at 450 nm)
# Condition info: SAM, histone H4 peptide, room temperature 2 hours, 8 points from 10 μM to 0.128 nM

Example entries and their recorded answers appear below.
CC1(C)CN(C[C@H](O)CN2CCc3ccccc3C2)C(=O)c2ccc(CN3CCC4(COC4)C3)cc2O1 [Example 183] ... 0.1 to 1 µM
CN1CCC(Oc2ccc3c(c2)OCCN(C[C@H](O)CN2CCc4ccccc4C2)C3=O)CC1 [Example 87] ... 0.001 to 0.1 µM
O=C1c2ccc(CN3CCC[C@H]3CO)cc2OCCN1C[C@H](O)CN1CCc2ccccc2C1 [Example 46] ... 0.1 to 1 µM
CN1CCC(Oc2ccc3c(c2)OCCN(C[C@H](O)CN2CCc4ccccc4C2)C3=O)C1 (stereo partly shown) [Example 98] ... 0.1 to 1 µM
O=C1c2ccc(OC3CCN(CCF)CC3)nc2OCCN1C[C@H](O)CN1CCc2ccccc2C1 [Example 164] ... 0.1 to 1 µM
CC(=O)N1CC2(CC(Oc3ccc4c(c3)OCCN(C[C@H](O)CN3CCc5ccccc5C3)C4=O)C2)C1 [Example 174] ... 0.001 to 0.1 µM

stdin: Requested read-out: IC50. Entry: O=C1c2ccc(OC3CCN(CCO)CC3)cc2OCCN1C[C@H](O)CN1CCc2ccccc2C1 [Example 162]
stdout: 0.1 to 1 µM

stdin: Next up: O=C1c2ccc(C(=O)N3CC4CCC3C4)cc2OCCN1C[C@H](O)CN1CCc2ccccc2C1 (stereo partly shown) [Example 188]
stdout: 0.1 to 1 µM

stdin: Next up: CC1(C)CN(C[C@H](O)CN2CCc3ccccc3C2)C(=O)c2ccc(C(=O)N3CC4CC3CO4)cc2O1 (stereo partly shown) [Example 204]
stdout: 0.1 to 1 µM

stdin: Next up: CC1(C)CN(C[C@H](O)CN2CCc3ccccc3C2)C(=O)c2ccc(CN3CCN(C4COC4)CC3)cc2O1 [Example 182]
stdout: 0.1 to 1 µM

stdin: Next up: O=C1c2ccc(OCc3ccncc3)cc2OCCN1C[C@H](O)CN1CCc2ccccc2C1 [Example 57]
stdout: 0.001 to 0.1 µM

stdin: Next up: CCN1CCC(Oc2ccc3c(c2)N(C)CCN(C[C@H](O)CN2CCc4ccccc4C2)C3=O)CC1 [Example 126]
stdout: 0.1 to 1 µM

stdin: Next up: CC1(C)CN(C[C@H](O)CN2CCc3ccccc3C2)C(=O)c2ccc(OC3CCN(C=O)CC3)cc2O1 [Example 181]
stdout: 0.1 to 1 µM

stdin: Next up: O=C(c1ccc2c(c1)OCCN(C[C@H](O)CN1CCc3ccccc3C1)C2=O)N1CCC(C(F)(F)F)CC1 [Example 186]
stdout: 0.1 to 1 µM

stdin: Next up: CCN1C2CCC1CC(Oc1ccc3c(c1)N(C)CCN(C[C@H](O)CN1CCc4ccccc4C1)C3=O)C2 (stereo partly shown) [Example 137]
stdout: 0.001 to 0.1 µM

stdin: Next up: N#CCN1CCC(Oc2ccc3c(c2)OCCN(C[C@H](O)CN2CCc4ccccc4C2)C3=O)CC1 [Example 159]
stdout: 0.1 to 1 µM
